assay: Selectivity index, ratio of IC50 for cytotoxicity against PMA-differentiated THP-1 macrophages to IC50 for antileishmanial activity against log phase of wild type Leishmania donovani MHOM/80/IN/Dd8 promastigotes; type: toxicity; details: human; read-out: Ratio IC50
Entries and their selectivity ratio values follow.
Give the figure only, with no unit attached.

Example entries and their recorded answers appear below.
{"COMPOUND": "CN(C)CCCNc1nc(-c2ccc(Cl)cc2)nc2ccccc12", "VALUE REPORTED": 9.53}
{"COMPOUND": "CN(C)CCNc1nc(-c2ccc(Cl)cc2)nc2ccccc12", "VALUE REPORTED": 8}
{"COMPOUND": "CCCCCCCCCCCCCCCCOP(=O)([O-])OCC[N+](C)(C)C [MILTEFOSINE]", "VALUE REPORTED": 3.42}
{"COMPOUND": "COc1cccc(-c2nc(NCCCN(C)C)c3ccccc3n2)c1", "VALUE REPORTED": 6.72}

Request: Which selectivity ratio value is on record for COc1cc(-c2nc(NCCN(C)C)c3ccccc3n2)cc(OC)c1OC ?
Result: 7.69

Request: Look at this compound and give its reported selectivity ratio. NCCNc1nc(-c2ccc(Cl)cc2)nc2ccccc12
Result: 2.3

Request: For the compound CN(C)CCCNc1nc(-c2ccc(F)cc2)nc2ccccc12 , what selectivity ratio is on record?
Result: 4.84

Request: GET /values?readout=selectivity ratio&item= COc1ccc(-c2nc(NCCCN3CCN(C)CC3)c3ccccc3n2)cc1
Result: 7.28

Request: // selectivity ratio lookup, key: COc1ccc(-c2nc(NCCCN3CCOCC3)c3ccccc3n2)cc1
Result: 2.24

Request: Looking for the measured selectivity ratio of NCCNc1nc(-c2ccc(F)cc2)nc2ccccc12 , can you help?
Result: 2.56

====

system: Leishmania braziliensis; assay: Antileishmanial activity against Leishmania braziliensis assessed as inhibition of parasite growth; assay type: functional, organism-based
PARAMETER MEASURED: pEC50
Hey, just a heads up that pEC50 is the negative log base 10 of the concentration in molar.

Request: Checklist item: pEC50 tested on Leishmania braziliensis, entry COc1cccc(-c2nc(O)c3ccccc3n2)c1 , value?
Result: 5.31

====

experiment: Cytotoxicity against human PMA-differentiated THP-1 macrophages assessed as inhibition of cell growth by MTT assay; format: toxicity, cell-based, Macrophage
Overview of recorded IC50 for various compounds
The figure you give is taken to be in µM; do not add the unit.

Known IC50 results, listed for orientation:
{"CHEM SMILES": "CN(C)CCCNc1nc(-c2ccc(Cl)cc2)nc2ccccc12", "UNIT TEXT": "µM", "IC50": 62}
{"CHEM SMILES": "NCCCCNc1nc(-c2ccc(F)cc2)nc2ccccc12", "UNIT TEXT": "µM", "IC50": 64}
{"CHEM SMILES": "COc1cccc(-c2nc(NCCCN(C)C)c3ccccc3n2)c1", "UNIT TEXT": "µM", "IC50": 37}
{"CHEM SMILES": "CN(C)CCCNc1nc(-c2ccc(O)cc2)nc2ccccc12", "UNIT TEXT": "µM", "IC50": 65}
{"CHEM SMILES": "COc1ccc(-c2nc(NCCN(C)C)c3ccccc3n2)cc1", "UNIT TEXT": "µM", "IC50": 57}

Request: // IC50 lookup, key: COc1ccc(-c2nc(NCCCN3CCOCC3)c3ccccc3n2)cc1O
Result: 33.5

Request: IC50 for COc1ccc(-c2nc(NCCN(C)C)c3ccccc3n2)cc1O ?
Result: 22.5

Request: // lookup IC50 for COc1ccc(-c2nc(NCCCN(C)C)c3ccccc3n2)cc1
Result: 67.5

Request: Please look up its IC50: COc1cc(-c2nc(NCCCN(C)C)c3ccccc3n2)cc(OC)c1OC
Result: 61

Request: Form field: reported IC50 of CCCCCCCCCCCCCCCCOP(=O)([O-])OCC[N+](C)(C)C
Result: 36

Request: Name the recorded IC50 for COc1ccc(-c2nc(NCCCN3CCN(C)CC3)c3ccccc3n2)cc1 .
Result: 53

Request: Sample NCCNc1nc(-c2ccc(F)cc2)nc2ccccc12 — what was its IC50?
Result: 64
